# System: TK-10 renal
# protocol text: NCI tumour cell line growth inhibition, 48 h
readout label: TGI

Worked cases, TGI given:
COc1cc(C(O)CCBr)c(OC)cc1C (stereo not given) :: > 100 µM
CN(/N=C/c1cccc2cccnc12)c1ccc([N+](=O)[O-])cc1[N+](=O)[O-] :: 54 µM
CN(Cc1ccccc1)C(=NC#N)N(Cc1ccccc1)Cc1ccccc1 :: > 100 µM
C[C@]12CC[C@@H]3c4ccc(O)cc4CC[C@H]3[C@@H]1CC[C@@H]2OP(=O)(O)O :: > 100 µM
CNC(=O)Nc1nc2ccc([N+](=O)[O-])cc2[nH]1 :: > 100 µM
O=C(O)CN(CC(=O)O)Cc1cc(C#Cc2ccc(C#Cc3ccccc3)cc2)cc(CN(CC(=O)O)CC(=O)O)n1 :: > 86.2 µM
Cc1ccc2nc(Cl)c(/C=N/N3C(=O)/C(=C/c4cccc([N+](=O)[O-])c4)N=C3c3ccccc3)cc2c1 :: > 100 µM
S=c1nc(N2CCCCC2)c2cn[nH]c2[nH]1 :: > 100 µM
CCN(CC)CCNc1ccc2nnn3c4ccc(C)cc4c(=O)c1c23 :: 28.8 µM
CC(CC[C@@H](O)C(C)(C)O)C1[C@@H](O)CC2(C)C3CC(O)C4C(C)(C)[C@@H](OC5OC(CO)C(O)C(O)C5O)CC[C@@]45C[C@@]35CC[C@]12C (stereo not given in full) :: > 10 µM

Exam item: Entry `Cc1cc2c(cc1C)OC(=O)CC2` , system TK-10 renal: what TGI was measured?
Marked response: > 100 µM

Exam item: Entry CC(C)Oc1c(O)c2c3c(oc(=O)n3C=CC2c2ccccc2)c1OC(C)C (stereo not given) , system TK-10 renal: what TGI was measured?
Marked response: 68.2 µM

Exam item: Entry `CN(CCO)CC[C@H](CSc1ccccc1)Nc1ccc(S(=O)(=O)NC(=O)c2ccc(N3CCC([C@@H](O)c4ccccc4-c4ccc(Cl)cc4)CC3)cc2)cc1S(=O)(=O)C(F)(F)F` , system TK-10 renal: what TGI was measured?
Marked response: 19.2 µM

###

TGI values by entry
# Test system: SK-MEL-28 melanoma
# protocol text: NCI tumour cell line growth inhibition, 48 h

Cc1ccc(C2=Nn3c(nc4sc(C)c(C)c4c3=O)SC2)cc1 :: > 100 µM
Cc1ccc(S(=O)(=O)N2CCC(=O)c3cc(Br)ccc32)cc1 :: > 100 µM
O=c1[nH]nnc2c1ncn2C1OC(CO)C(O)C1O (stereo not given) :: > 100 µM
O=C(NCCCCNc1cccccc1=O)OCc1ccccc1 :: > 100 µM
CCCCCCCCCCCc1nnc(N)o1 :: > 100 µM
CC(C)Cn1cnc2c(SCc3ccc(Cl)cc3Cl)nc(N)nc21 :: > 100 µM
C/C=C(\C)C(=O)NC1=CC[C@@]2(C)C(=CCC3C2CC[C@@]2(C)C3CC[C@@H]2C(C)N(C)C)C1=O (stereo not given in full) :: 3.24 µM
CC1(C)C2C=C(CCN3CCOCC3)CC1C2 (stereo not given) :: > 100 µM
COc1ccc(CCCCl)c(C2=NCCc3cc(OC)c(OC)cc32)c1 :: > 100 µM

Let us examine a further case.
Exam item: Which TGI value is on record for `C=C1C(=O)O[C@H]2[C@H]1CC/C(COC(=O)CSCSCC(=O)OC/C1=C/CC[C@@]3(C)O[C@H]3[C@H]3OC(=O)C(=C)[C@@H]3CC1)=C\CC[C@@]1(C)O[C@@H]21` ?
Marked response: 3.19 µM

###

# System: IGROV1 ovarian
# protocol text: NCI tumour cell line growth inhibition, 48 h; in the data active = GI50 below about 0.43 µM; inactive = the rest
Write down one outcome, taken from active, inactive

Known results for molecules:
N.N.N.N.N.NC(=O)c1nn[n-]n1.[Cl-].[Co+3] :: inactive
C[C@@]1(C(=O)O)CCC[C@]2(C)C1CC[C@@]13CC(=O)[C@@](CO)(CC[C@]12O)C3 (some centres undefined) :: inactive
C=C(C)C(O)CCC1(C)C=Cc2c(c(C)cc3c2[nH]c2ccccc23)O1 (centres undefined) :: inactive
C=C1C(=O)O[C@H]2[C@H]1CC/C(CNC(=O)/C=C/c1cc(OC)c(OC)c(OC)c1)=C\CC[C@@]1(C)O[C@@H]21 :: inactive
COc1ccc(-c2nn(-c3cccc(Cl)c3)cc2-c2cc(-c3cccs3)[nH]c(=S)n2)cc1 :: inactive

Exam item: Name the outcome recorded for CN(O)C(=O)SCC(NC(=O)CCC(N)C(=O)O)C(=O)NCC(=O)O (centres undefined) in the assay.
Marked response: inactive

Exam item: Name the outcome recorded for `N#Cc1ccc(OCc2nc(N)nc(N)c2-c2ccc(Cl)c(Cl)c2)cc1` in the assay.
Marked response: inactive

Exam item: Name the outcome recorded for `Clc1nc(Cl)c2ncn(CC3(Cn4cnc5c(Cl)nc(Cl)nc54)COC3)c2n1` in the assay.
Marked response: active

Exam item: Name the outcome recorded for `C[C@H](NC(=O)[C@@H](C)N)[C@H](Oc1ccc2c(cnn2-c2ccc(F)cc2)c1)c1ccc2c(c1)OCCO2` in the assay.
Marked response: inactive

###

# Tested on: MDA-MB-231 breast
# protocol text: NCI tumour cell line growth inhibition, 48 h; in the data active = GI50 below about 0.43 µM; inactive = the rest
Write down one outcome, taken from active, inactive

Known results for compounds:
COC12C=C/C(=C(/C(=O)OCc3cncnc3)C(=O)CCCCCCCCC3(OC)C=C/C(=C(/C(=O)OCc4cncnc4)C(=O)CCCCCCCC1)O3)O2 :: inactive
COc1ccc2[nH]cc(-c3ccc(-c4c[nH]c5ccc(OC)cc45)s3)c2c1 :: inactive
O=C(Oc1cccc(F)c1OC(=O)c1cccc(O)c1)c1cccc(O)c1 :: inactive

Next:
Exam item: Name the outcome recorded for `Clc1nc(Cl)c2ncn(CC3(Cn4cnc5c(Cl)nc(Cl)nc54)COC3)c2n1` in the assay.
Marked response: active

###

# System: HL-60(TB) leukemia
# protocol text: NCI tumour cell line growth inhibition, 48 h
TGI values by entry

CC[C@@H]1c2c(C#N)ncn2-c2cnc(Nc3ccc(C(=O)NC4CCN(C5CCN(CC6CC6)CC5)CC4)cc3OC)nc2N1C1CCCC1 :: 0.104 µM
CN(Cc1ccccc1)C(=NC#N)N(Cc1ccccc1)Cc1ccccc1 :: > 100 µM
COc1ccc2nc3cc(Cl)ccc3c(NCCNC(=O)Cn3c(=O)n(C)c(=O)c4c3nc3c(c(=O)n(C)c(=O)n3C)[n+]4[O-])c2c1 :: > 100 µM
CN1CC[C@]23c4c5ccc(O)c4O[C@H]2C(O)CC[C@@]3(O)[C@H]1C5 (stereo partly specified) :: > 100 µM
O=C(O)CCN(CCCCN(CCC(=O)O)CCC(=O)O)CCC(=O)O :: > 100 µM

Let us examine a further case.
Exam item: Which TGI value is on record for `COc1cc(Br)c(C=Nc2cccc3cc(OC)c(OC)cc23)cc1OC` ?
Marked response: 39.5 µM

###

GI50 values by entry
# Test system: EKVX NSCLC
# protocol text: NCI tumour cell line growth inhibition, 48 h

Worked cases, GI50 given:
C/C=C(\C)C(=O)NC1=CC[C@@]2(C)C(=CCC3C2CC[C@@]2(C)C3CC[C@@H]2C(C)N(C)C)C1=O (some centres undefined) :: 3170 nM
CCOC(=O)c1c(C)nc2c(c1N)CC(=O)N2Cc1ccc(OC)cc1 :: 7910 nM
Clc1nc(Cl)c2ncn(CC3(Cn4cnc5c(Cl)nc(Cl)nc54)COC3)c2n1 :: 821 nM

Let us examine a further case.
Exam item: Which GI50 value is on record for `C=C1C(=O)O[C@H]2[C@H]1CC/C(COC(=O)CSCSCC(=O)OC/C1=C/CC[C@@]3(C)O[C@H]3[C@H]3OC(=O)C(=C)[C@@H]3CC1)=C\CC[C@@]1(C)O[C@@H]21` ?
Marked response: 1600 nM

###

# Tested on: SNB-75 CNS
# protocol text: NCI tumour cell line growth inhibition, 48 h
readout label: TGI

CC1(C)O[C@H]2[C@H](O)C[C@](O)(CO)C[C@H]2O1 :: > 100 µM
O=C1Nc2ccccc2C1=Nc1cccc2ncccc12 :: > 100 µM
C/C=C(\C)C(=O)NC1=CC[C@@]2(C)C(=CCC3C2CC[C@@]2(C)C3CC[C@@H]2C(C)N(C)C)C1=O (some centres undefined) :: 28.4 µM

Exam item: Which TGI value is on record for `CC(=O)OC/C=C/[C@H](O[Si](C)(C)C(C)(C)C)[C@@H](O)/C=C/COC(C)=O` ?
Marked response: > 100 µM

Exam item: Which TGI value is on record for `COc1ccc([C@H]2CC(=O)C[C@H](c3ccc(OC)cc3)C23C(=O)c2ccccc2C3=O)cc1` ?
Marked response: 8.63 µM

Exam item: Which TGI value is on record for `CCOC(=O)c1nnsc1NC(=O)Nc1ccc(Cc2ccc(NC(=O)Nc3snnc3C(=O)OCC)cc2)cc1` ?
Marked response: > 100 µM

Exam item: Which TGI value is on record for `O=C(Nc1ccc([As](=O)(O)O)cc1)Nc1cccc(Cl)c1Cl` ?
Marked response: 65.4 µM

Exam item: Which TGI value is on record for O=C(COc1ccc(Cl)cc1)N1N=C(c2ccc(Cl)cc2)CC1(O)c1ccccc1 (centres undefined) ?
Marked response: > 72.7 µM

Exam item: Which TGI value is on record for `N#C[C@@H](c1nc2ccccc2s1)c1ncccc1[N+](=O)[O-]` ?
Marked response: > 31.6 µM
